These data points were gathered from ChEMBL document CHEMBL4665642.

Provide the reported viability at 10 µM of each item.
system: SK-MEL-28; assay: Cytotoxicity against human SK-MEL-28 cells assessed as cell viability at 10 uM incubated for 48 hrs by sulforhodamine B assay relative to control; type: functional; settings: read-out: Activity
Please give the number followed by its unit.

What measured viability at 10 µM is associated with O=S(=O)(NCCNc1nccc(-c2c(-c3cccc(F)c3)nc3sccn23)n1)c1cccc2ccccc12 on SK-MEL-28?
123%

Request: viability at 10 µM, test system SK-MEL-28, entry O=S(=O)(NCCCNc1nccc(-c2c(-c3cccc(F)c3)nc3sccn23)n1)c1ccc(Cl)cc1
92.3%

Hi! What's the reported viability at 10 µM for O=S(=O)(NCCCNc1nccc(-c2c(-c3cccc(F)c3)nc3sccn23)n1)c1ccc(F)cc1 on SK-MEL-28?
96.9%

Report viability at 10 µM for O=C(NCCNc1nccc(-c2c(-c3cccc(F)c3)nc3sccn23)n1)C1CCCCC1 tested on SK-MEL-28.
106%

Kindly state the measured viability at 10 µM obtained for O=S(=O)(NCCCNc1nccc(-c2c(-c3cccc(F)c3)nc3sccn23)n1)c1ccc(O)cc1 with SK-MEL-28.
95.9%

Quick check: viability at 10 µM on SK-MEL-28, item O=C(NCCNc1nccc(-c2c(-c3cccc(F)c3)nc3sccn23)n1)c1ccccc1 ?
58.7%

Lab note: need viability at 10 µM for O=C(NCCNc1nccc(-c2c(-c3cccc(F)c3)nc3sccn23)n1)c1ccc(Cl)cc1 on SK-MEL-28, anyone have it?
64.9%

I'm curious: which viability at 10 µM was measured for O=S(=O)(NCCNc1nccc(-c2c(-c3cccc(F)c3)nc3sccn23)n1)c1cccc(F)c1 tested on SK-MEL-28?
94.7%

Query for SK-MEL-28: what viability at 10 µM does the record show for O=C(NCCCNc1nccc(-c2c(-c3cccc(F)c3)nc3sccn23)n1)c1ccc(F)cc1 ?
106%

Value wanted: viability at 10 µM (SK-MEL-28) of entry O=S(=O)(NCCCNc1nccc(-c2c(-c3cccc(F)c3)nc3sccn23)n1)c1ccc(Br)cc1
67%

Request body: readout viability at 10 µM, system SK-MEL-28, query O=S(=O)(NCCCNc1nccc(-c2c(-c3cccc(F)c3)nc3sccn23)n1)c1cccc(F)c1 . Return the value.
68.3%

# get_value(readout= viability at 10 µM, system= SK-MEL-28) for O=C(NCCCNc1nccc(-c2c(-c3cccc(F)c3)nc3sccn23)n1)c1ccc(C(F)(F)F)cc1
96.2%

Short answer please: viability at 10 µM, SK-MEL-28, entry O=S(=O)(NCCNc1nccc(-c2c(-c3cccc(F)c3)nc3sccn23)n1)c1ccc(Br)cc1
69.1%

API: value(readout=viability at 10 µM, system=SK-MEL-28) for record O=C(NCCCNc1nccc(-c2c(-c3cccc(F)c3)nc3sccn23)n1)C1CCCCC1
84.5%

Give recorded viability at 10 µM with SK-MEL-28 for the following compound: O=S(=O)(NCCNc1nccc(-c2c(-c3cccc(F)c3)nc3sccn23)n1)c1ccc(C(F)(F)F)cc1
114%

Form entry - test system: SK-MEL-28; read-out: viability at 10 µM; compound: O=C(NCCNc1nccc(-c2c(-c3cccc(F)c3)nc3sccn23)n1)c1ccc(C(F)(F)F)cc1
82.1%

Provide the documented viability at 10 µM with SK-MEL-28 as the system for O=S(=O)(NCCNc1nccc(-c2c(-c3cccc(F)c3)nc3sccn23)n1)c1ccc(Cl)cc1
74.7%

Give SK-MEL-28 viability at 10 µM for O=S(=O)(NCCNc1nccc(-c2c(-c3cccc(F)c3)nc3sccn23)n1)c1ccc(F)cc1
81.1%
